system_name: Ikaros (Homo sapiens, UniProt Q13422+Q96SW2)
Sequence (Q13422 whole entry, one chain of several): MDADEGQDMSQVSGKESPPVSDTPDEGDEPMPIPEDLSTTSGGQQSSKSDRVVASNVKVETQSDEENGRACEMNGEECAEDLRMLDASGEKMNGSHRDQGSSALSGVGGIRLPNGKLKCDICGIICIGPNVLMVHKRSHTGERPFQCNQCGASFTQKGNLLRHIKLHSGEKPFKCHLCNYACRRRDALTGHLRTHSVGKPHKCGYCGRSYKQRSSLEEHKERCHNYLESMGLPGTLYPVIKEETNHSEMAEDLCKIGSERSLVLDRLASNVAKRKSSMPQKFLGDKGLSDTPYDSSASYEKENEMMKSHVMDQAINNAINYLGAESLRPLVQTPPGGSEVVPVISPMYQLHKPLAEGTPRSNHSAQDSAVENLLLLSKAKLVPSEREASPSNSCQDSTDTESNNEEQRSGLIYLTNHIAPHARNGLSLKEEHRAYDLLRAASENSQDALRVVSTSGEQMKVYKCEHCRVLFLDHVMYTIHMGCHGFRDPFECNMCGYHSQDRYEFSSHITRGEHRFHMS
method_summary: Helios Cellular Degradation Assay (Ikaros readout)
Type: cell-based
Parameters: endogenous in cells; host or cells: Jurkat
experimental_parameters: Jurkat cells, 72 h incubation, Ikaros-Alexa488 antibody staining, flow cytometry; read-out: Ikaros Jurkat IC50
Some compounds, each annotated with its measured DC50.

Below: 4 compounds and their reported DC50.
N#Cc1cccc(-c2ccc3c(c2)CN(C2CCC(=O)NC2=O)C3=O)n1 (stereo not shown)
≥ 20 µM
Nc1nc(-c2ccc3c(c2)CN(C2CCC(=O)NC2=O)C3=O)nc2ccccc12 (stereo not shown)
> 20 µM
O=C1CCC(N2Cc3cc(-c4ccc5cc(Cl)ccc5n4)ccc3C2=O)C(=O)N1 (stereo not shown)
> 20 µM
O=C1CCC(N2Cc3cc(-c4cc(C(=O)NC5CC5)c5ccccc5n4)ccc3C2=O)C(=O)N1 (stereo not shown)
> 20 µM

Attention now shifts to the item below.
Asked: Please report DC50 for the following compound: CNc1nc(-c2ccc3c(c2)CN(C2CCC(=O)NC2=O)C3=O)cc2ncccc12 (stereo not shown)
Given back: > 20 µM

====

system_name: Helios (Homo sapiens, UniProt Q96SW2+Q9UKS7)
Sequence (Q9UKS7 whole entry): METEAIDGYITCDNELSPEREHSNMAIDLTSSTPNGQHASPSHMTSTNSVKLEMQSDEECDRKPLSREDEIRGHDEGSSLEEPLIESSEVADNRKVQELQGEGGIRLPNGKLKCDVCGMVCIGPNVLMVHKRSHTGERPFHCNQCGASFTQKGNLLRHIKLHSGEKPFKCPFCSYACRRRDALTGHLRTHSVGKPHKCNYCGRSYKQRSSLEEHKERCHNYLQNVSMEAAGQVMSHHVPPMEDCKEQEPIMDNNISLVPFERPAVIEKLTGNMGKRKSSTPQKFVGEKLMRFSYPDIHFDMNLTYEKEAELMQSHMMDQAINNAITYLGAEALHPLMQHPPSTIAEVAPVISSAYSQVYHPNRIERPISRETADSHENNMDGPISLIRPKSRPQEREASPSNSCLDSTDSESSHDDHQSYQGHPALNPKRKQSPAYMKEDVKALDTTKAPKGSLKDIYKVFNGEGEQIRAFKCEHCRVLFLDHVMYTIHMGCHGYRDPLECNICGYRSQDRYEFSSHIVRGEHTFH
Sequence (Q96SW2 whole entry): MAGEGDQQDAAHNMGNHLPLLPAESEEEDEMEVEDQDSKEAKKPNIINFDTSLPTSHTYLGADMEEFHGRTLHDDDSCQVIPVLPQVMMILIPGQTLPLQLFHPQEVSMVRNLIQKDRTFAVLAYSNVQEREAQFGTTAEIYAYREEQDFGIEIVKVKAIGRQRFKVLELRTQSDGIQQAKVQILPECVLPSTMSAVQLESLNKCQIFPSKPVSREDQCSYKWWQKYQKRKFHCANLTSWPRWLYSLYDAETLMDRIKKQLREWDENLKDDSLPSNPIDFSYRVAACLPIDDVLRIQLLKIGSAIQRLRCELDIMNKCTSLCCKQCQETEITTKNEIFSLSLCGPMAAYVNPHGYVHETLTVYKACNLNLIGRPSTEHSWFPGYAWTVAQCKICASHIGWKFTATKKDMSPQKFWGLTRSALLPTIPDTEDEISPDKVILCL
Sequence (Q16531 whole entry partner): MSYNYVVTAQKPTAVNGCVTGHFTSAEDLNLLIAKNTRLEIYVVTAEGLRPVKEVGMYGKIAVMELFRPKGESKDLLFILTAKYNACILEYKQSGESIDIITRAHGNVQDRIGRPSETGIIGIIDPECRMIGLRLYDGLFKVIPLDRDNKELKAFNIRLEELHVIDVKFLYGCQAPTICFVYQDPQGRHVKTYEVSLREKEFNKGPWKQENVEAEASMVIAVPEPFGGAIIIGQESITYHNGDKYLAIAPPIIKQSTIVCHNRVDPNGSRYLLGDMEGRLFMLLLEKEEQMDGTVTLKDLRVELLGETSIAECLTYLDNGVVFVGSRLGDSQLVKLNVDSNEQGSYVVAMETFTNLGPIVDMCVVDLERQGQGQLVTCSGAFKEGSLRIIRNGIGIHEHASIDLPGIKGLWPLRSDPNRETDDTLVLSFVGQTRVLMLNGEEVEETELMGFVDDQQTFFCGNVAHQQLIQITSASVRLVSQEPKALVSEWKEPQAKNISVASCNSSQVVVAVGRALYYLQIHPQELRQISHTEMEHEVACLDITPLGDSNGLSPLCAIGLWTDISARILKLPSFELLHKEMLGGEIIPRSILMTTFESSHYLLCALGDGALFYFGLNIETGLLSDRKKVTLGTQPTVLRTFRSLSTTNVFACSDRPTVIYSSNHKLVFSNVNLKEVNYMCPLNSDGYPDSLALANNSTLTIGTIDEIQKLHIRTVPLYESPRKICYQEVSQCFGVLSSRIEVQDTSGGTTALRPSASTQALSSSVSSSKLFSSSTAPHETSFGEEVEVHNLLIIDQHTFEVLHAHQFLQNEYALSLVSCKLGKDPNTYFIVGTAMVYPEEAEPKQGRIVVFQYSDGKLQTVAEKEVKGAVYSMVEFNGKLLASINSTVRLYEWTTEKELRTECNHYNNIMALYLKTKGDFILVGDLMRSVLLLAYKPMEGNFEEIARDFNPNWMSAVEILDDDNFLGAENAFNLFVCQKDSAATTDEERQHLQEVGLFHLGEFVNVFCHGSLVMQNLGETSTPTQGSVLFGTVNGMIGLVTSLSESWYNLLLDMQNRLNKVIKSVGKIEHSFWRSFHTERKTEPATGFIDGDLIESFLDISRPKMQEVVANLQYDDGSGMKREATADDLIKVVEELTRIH
method_summary: Helios Cellular Degradation Assay (Helios readout)
Assay type: cell-based
Design: endogenous in cells; host or cells: Jurkat
experimental_parameters: Jurkat cells, 72 h incubation, Helios-PE antibody staining, flow cytometry; read-out: Helios Jurkat IC50
Note to self: use fulfilled only for DC50 readings below 70 nM; a reading exactly at 70 nM still gets not fulfilled.

Nc1nc(-c2ccc3c(c2)CN([C@H]2CCC(=O)NC2=O)C3=O)cc2ccccc12
fulfilled
Nc1nc(-c2ccc3c(c2)CN(C2CCC(=O)NC2=O)C3=O)c2nc[nH]c2n1 (centres unmarked)
not fulfilled
Nc1cc(Cl)cc(-c2ccc3c(c2)CN(C2CCC(=O)NC2=O)C3=O)n1 (centres unmarked)
fulfilled
Cc1cc(N)nc(-c2ccc3c(c2)CN(C2CCC(=O)NC2=O)C3=O)c1 (centres unmarked)
fulfilled
Cc1cc(C)nc(-c2ccc3c(c2)CN(C2CCC(=O)NC2=O)C3=O)c1 (centres unmarked)
not fulfilled
CN(C)c1nc(-c2ccc3c(c2)CN(C2CCC(=O)NC2=O)C3=O)cc2ccccc12 (centres unmarked)
fulfilled

Lab note: next molecule to report on.
Asked: Record O=C1CCC(N2Cc3cc(-c4nccc5cccnc45)ccc3C2=O)C(=O)N1 (centres unmarked) : is its DC50 strictly below 70 nM?
Given back: not fulfilled

====

system_name: Helios (Homo sapiens, UniProt Q96SW2+Q9UKS7)
method_summary: Helios Cellular Degradation Assay (Helios readout)
Type: cell-based
Design: endogenous in cells; host or cells: Jurkat
experimental_parameters: Jurkat cells, 72 h incubation, Helios-PE antibody staining, flow cytometry; read-out: Helios Jurkat IC50
Some compounds, each annotated with its measured DC50.
Output spec: scalar in nM, unitless text.

Below: 2 compounds and their reported DC50.
CN(C)c1cnc(-c2ccc3c(c2)CN(C2CCC(=O)NC2=O)C3=O)c2cc(Cl)ccc12 (stereo not drawn) [Example 129]
10
Nc1c(-c2ccc3c(c2)CN(C2CCC(=O)NC2=O)C3=O)ncc2ccccc12 (stereo not drawn) [Example 2]
370

Asked: Please report DC50 for the following compound: O=C1CCC(N2Cc3cc(-c4cc5c(cn4)NCC5)ccc3C2=O)C(=O)N1 (stereo not drawn) [Example 113]
Given back: 50

Asked: Please report DC50 for the following compound: CC(=O)Nc1nc(-c2ccc3c(c2)CN(C2CCC(=O)NC2=O)C3=O)cc(C)c1C (stereo not drawn) [Example 167]
Given back: 50

Asked: Please report DC50 for the following compound: COc1cc(-c2ccc3c(c2)CN(C2CCC(=O)NC2=O)C3=O)nc2ccccc12 (stereo not drawn) [Example 12]
Given back: 38

Asked: Please report DC50 for the following compound: COc1c(C)cc(-c2ccc3c(c2)CN(C2CCC(=O)NC2=O)C3=O)nc1N (stereo not drawn) [Example 153]
Given back: 70

Asked: Please report DC50 for the following compound: CC(=O)O[C@@H]1CCOc2nc(-c3ccc4c(c3)CN([C@H]3CCC(=O)NC3=O)C4=O)ccc21 [Example 128]
Given back: 2830

Asked: Please report DC50 for the following compound: CC(=O)N1CCN(c2nc(-c3ccc4c(c3)CN(C3CCC(=O)NC3=O)C4=O)nc3ncccc23)CC1 (stereo not drawn) [Example 55]
Given back: 1000

====

system_name: Helios (Homo sapiens, UniProt Q96SW2+Q9UKS7)
method_summary: Helios Cellular Degradation Assay (Helios readout)
Type: cell-based
Design: endogenous in cells; host or cells: Jurkat
experimental_parameters: Jurkat cells, 72 h incubation, Helios-PE antibody staining, flow cytometry; read-out: Helios Jurkat IC50
Note to self: use satisfied only for DC50 readings below 90 nM; a reading exactly at 90 nM still gets not satisfied.

Example entries begin here.
O=C1CCC(N2Cc3cc(-c4cc(-c5ccccc5)c5ccccc5n4)ccc3C2=O)C(=O)N1 (centres unmarked)
not satisfied
Nc1nc(-c2ccc3c(c2)CN(C2CCC(=O)NC2=O)C3=O)cc2c1CCCC2 (centres unmarked)
satisfied
COc1cccc2c(-c3ccc4c(c3)CN(C3CCC(=O)NC3=O)C4=O)nc(N)cc12 (centres unmarked)
satisfied

Asked: Record CCOc1c(-c2ccc3c(c2)CN(C2CCC(=O)NC2=O)C3=O)nc(Cl)c2ccccc12 (centres unmarked) : is its DC50 strictly below 90 nM?
Given back: satisfied

Asked: Record N#Cc1ccc(-c2ccc3c(c2)CN(C2CCC(=O)NC2=O)C3=O)nn1 (centres unmarked) : is its DC50 strictly below 90 nM?
Given back: not satisfied

Asked: Record CCC(C)Nc1nc2ccc(-c3ccc4c(c3)CN(C3CCC(=O)NC3=O)C4=O)nc2s1 (centres unmarked) : is its DC50 strictly below 90 nM?
Given back: not satisfied

Asked: Record O=C1CCC(N2Cc3cc(-c4cnc5ccccc5n4)ccc3C2=O)C(=O)N1 (centres unmarked) : is its DC50 strictly below 90 nM?
Given back: satisfied

====

system_name: Helios (Homo sapiens, UniProt Q96SW2+Q9UKS7)
method_summary: Helios Cellular Degradation Assay (Helios readout)
Type: cell-based
Design: endogenous in cells; host or cells: Jurkat
experimental_parameters: Jurkat cells, 72 h incubation, Helios-PE antibody staining, flow cytometry; read-out: Helios Jurkat IC50
Some compounds, each annotated with its measured DC50.

Below: 2 compounds and their reported DC50.
Cc1cc(=O)c2ccc(-c3ccc4c(c3)CN(C3CCC(=O)NC3=O)C4=O)nc2o1 (stereo not drawn) [Example 62]
> 20 µM
CC(=O)N1CCN(c2cc(N)nc(-c3ccc4c(c3)CN(C3CCC(=O)NC3=O)C4=O)c2)CC1 (stereo not drawn) [Example 186]
≥ 10 µM

Attention now shifts to the item below.
Asked: Please report DC50 for the following compound: Nc1nc2ccccc2nc1-c1ccc2c(c1)CN(C1CCC(=O)NC1=O)C2=O (stereo not drawn) [Example 5]
Given back: > 20 µM

====

Some compounds, each annotated with its measured DC50.
system_name: Helios (Homo sapiens, UniProt Q96SW2+Q9UKS7)
method_summary: Helios Cellular Degradation Assay (Helios readout)
Type: cell-based
Parameters: endogenous in cells; host or cells: Jurkat
experimental_parameters: Jurkat cells, 72 h incubation, Helios-PE antibody staining, flow cytometry; read-out: Helios Jurkat IC50
Output spec: scalar in nM, unitless text.

Below: 3 compounds and their reported DC50.
O=C1CCC(N2Cc3cc(-c4ccc5[nH]cnc5n4)ccc3C2=O)C(=O)N1 (centres unmarked)
4160
COc1cc(C#N)c(N)nc1-c1ccc2c(c1)CN(C1CCC(=O)NC1=O)C2=O (centres unmarked)
140
Cc1cc(O)nc(-c2ccc3c(c2)CN(C2CCC(=O)NC2=O)C3=O)c1 (centres unmarked)
310

Attention now shifts to the item below.
Asked: Please report DC50 for the following compound: Nc1cc(CO)cc(-c2ccc3c(c2)CN(C2CCC(=O)NC2=O)C3=O)n1 (centres unmarked)
Given back: 420

====

system_name: Helios (Homo sapiens, UniProt Q96SW2+Q9UKS7)
method_summary: Helios Cellular Degradation Assay (Helios readout)
Assay type: cell-based
Design: endogenous in cells; host or cells: Jurkat
experimental_parameters: Jurkat cells, 72 h incubation, Helios-PE antibody staining, flow cytometry; read-out: Helios Jurkat IC50
Note to self: use satisfied only for DC50 readings below 100 nM; a reading exactly at 100 nM still gets not satisfied.

Example entries begin here.
COc1cccnc1-c1ccc2c(c1)CN(C1CCC(=O)NC1=O)C2=O (centres unmarked)
not satisfied
O=C1CCC(N2Cc3cc(-c4ccccn4)ccc3C2=O)C(=O)N1 (centres unmarked)
not satisfied
O=C1CCC(N2Cc3cc(-c4ncnc5c4oc4ccccc45)ccc3C2=O)C(=O)N1 (centres unmarked)
satisfied
NC(=O)c1nc(-c2ccc3c(c2)CN([C@H]2CCC(=O)NC2=O)C3=O)cc2ccccc12
not satisfied
COC(=O)c1ccc2nc(-c3ccc4c(c3)CN(C3CCC(=O)NC3=O)C4=O)ccc2c1 (centres unmarked)
not satisfied
N#Cc1cc(C2CC2)c(-c2ccc3c(c2)CN(C2CCC(=O)NC2=O)C3=O)nc1N (centres unmarked)
satisfied
Nc1cc2cccnc2c(-c2ccc3c(c2)CN(C2CCC(=O)NC2=O)C3=O)n1 (centres unmarked)
satisfied

Lab note: next compound to report on.
Asked: Record `Nc1cc2ccccc2c(-c2ccc3c(c2)CN([C@H]2CCC(=O)NC2=O)C3=O)n1` : is its DC50 strictly below 100 nM?
Given back: satisfied

Data origin, for the record: patent US12570671B2
